- STUDY_TARGET: M3 muscarinic receptor (Homo sapiens)
- Sequence (P20309 whole entry): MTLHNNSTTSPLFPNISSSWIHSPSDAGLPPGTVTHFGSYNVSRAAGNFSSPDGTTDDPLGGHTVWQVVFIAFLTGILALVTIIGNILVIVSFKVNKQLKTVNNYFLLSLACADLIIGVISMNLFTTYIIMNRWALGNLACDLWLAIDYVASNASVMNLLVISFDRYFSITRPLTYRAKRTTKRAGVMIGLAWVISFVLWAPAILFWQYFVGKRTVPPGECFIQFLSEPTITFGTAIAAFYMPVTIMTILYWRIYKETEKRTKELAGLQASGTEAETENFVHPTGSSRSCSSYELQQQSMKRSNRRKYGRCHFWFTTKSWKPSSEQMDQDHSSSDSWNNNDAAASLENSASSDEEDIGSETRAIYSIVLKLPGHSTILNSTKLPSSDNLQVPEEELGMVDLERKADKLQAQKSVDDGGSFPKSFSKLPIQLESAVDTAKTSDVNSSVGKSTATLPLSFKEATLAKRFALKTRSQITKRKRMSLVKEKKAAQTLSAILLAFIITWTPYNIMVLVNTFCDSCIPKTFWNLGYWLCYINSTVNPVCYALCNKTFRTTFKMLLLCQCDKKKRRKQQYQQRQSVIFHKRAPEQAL
- MEASUREMENT_NOTES: accumulation of IPX, M3 CHO cells (M3Gq)
- Format: cell-based
- Set-up: host or cells: CHO cells, stably transfected
- APPLIED_CONDITIONS: M3 (↑IPX), preferential response, Table 7; read-out: pEC50 (converted)
Under this convention, true (1) denotes EC50 strictly below 5 µM and false (0) denotes EC50 at or above 5 µM.

Past entries and their recorded results:
>>> class_label("Cc1ccc(C[N+]2(C)CC=CCC2)s1.[I-] (stereo not shown)")
"false (0)"
>>> class_label("Cc1ccc(CN2CC=CCC2)s1.Cl")
"false (0)"

Does C[N+]1(Cc2ccc(Cl)s2)CC=CCC1.[I-] (stereo not shown) have EC50 strictly under 5 µM? true (1)

Now consider C[N+]1(Cc2cccs2)CC=CCC1.[I-] (stereo not shown) . true (1)

Now consider C[N+]1(Cc2ccc(Br)s2)CC=CCC1.[I-] (stereo not shown) . true (1)
